pIC50: −log10 of the molar value.
Below, pIC50 values reported for human IKK-β (Homo sapiens) across several publications.

// recorded pIC50 for CCCNC(=O)c1cc2c(C3CCCNC3)cc(-c3c(O)cccc3OCC3CC3)nc2[nH]c1=O (stereo not shown) : > 6.30

// recorded pIC50 for Cc1cc(-c2cc(C(N)=O)c(NC(N)=O)s2)ccc1/C=C/C[C@H](N)C(=O)O : > 6.00

// recorded pIC50 for N#Cc1c(C2CCCNC2)cc(-c2c(O)cccc2OCCN2CCOCC2)nc1N (stereo not shown) : > 6.30

For each of the molecules below, note its pIC50.
1. N#Cc1c(-c2ccc(Cl)c(NC(=O)CCN3CCCCC3)c2)cc(-c2ccccc2O)nc1N
2. N#Cc1c(CCN)cc(-c2c(O)cccc2OCc2ccccc2)nc1N
3. CC(C)C[C@H](NCCc1cc(-c2cc(C(N)=O)c(NC(N)=O)s2)ccc1F)C(=O)O

Output:
["5.70 to 6.30", "> 6.30", "> 6.00"]

For each of the molecules below, note its pIC50.
1. CC(C)C[C@H](NC/C=C/c1ccc(-c2cc(C(N)=O)c(NC(N)=O)s2)cc1F)C(=O)OC1CCCC1
2. C=CCOc1cccc(O)c1-c1cc(C2CCNCC2)c(C#N)c(N)n1
3. N#Cc1c(NCCNC(=O)Nc2ccccc2)cc(-c2c(O)cccc2OCC2CC2)nc1N
4. CCCCCCCOc1cccc(O)c1-c1cc(C2CCCNC2)c(C#N)c(N)n1 (stereo not shown)
5. N#Cc1c(-c2ccc(C(=O)O)cc2)cc(-c2ccccc2O)nc1N
6. CCCCNc1ncc(C(N)=O)c2[nH]c3ccc(F)cc3c12
7. CC(=O)NCc1c(C2CCNCC2)cc(-c2c(O)cccc2OCC2CC2)nc1N
8. CC(C)C[C@H](NCCCCCOc1ccc(-c2cc(C(N)=O)c(NC(N)=O)s2)c(Cl)c1)C(=O)OC1CCCC1

Output:
1: 5.30 to 6.00; 2: > 6.30; 3: > 6.30; 4: > 6.30; 5: 5.70 to 6.30; 6: ≥ 6.00; 7: > 6.30; 8: < 5.30

====

Below, pIC50 values reported for human IKK-β (Homo sapiens, UniProt O14920) across several publications.
pIC50: −log10 of the molar value.

pIC50 value, target or system human IKK-β (Homo sapiens, UniProt O14920), for N#Cc1c(N2CCC(C(N)=O)CC2)cc(-c2ccccc2O)nc1N : 5.70 to 6.30

pIC50 value, target or system human IKK-β (Homo sapiens, UniProt O14920), for NC(=O)Nc1sc(-c2cccc(CN[C@@H](CO)C(=O)OC3CCCC3)c2)cc1C(N)=O : > 6.00

pIC50 value, target or system human IKK-β (Homo sapiens, UniProt O14920), for Cc1ccc(O)c(-c2cc(-c3cccc(NC(=O)C4CCC(=O)O4)c3)c(C#N)c(N)n2)c1 (stereo not drawn) : < 5.00

For each of the compounds below, note its pIC50.
1. N#Cc1c(C2CCCNC2)cc(-c2c(O)cccc2OCCC2CCCCC2)nc1N (stereo not drawn)
2. NC(=O)Nc1cc(-c2ccc(OCC[C@H](N)C(=O)OC3CCCC3)cc2)sc1C(N)=O
3. N#Cc1c(-c2ccc(Cl)c(N)c2)cc(-c2ccccc2O)nc1N
4. CC(=O)N1CCN(CC(=O)Nc2cccc(-c3cc(-c4ccccc4O)nc(N)c3C#N)c2)CC1
5. CCCc1cc(N2CCC(NCC(=O)Nc3cccc4ccccc34)CC2)nc2sc(C(N)=O)c(N)c12

Output:
1: > 6.30; 2: > 6.00; 3: < 5.00; 4: 5.00 to 5.70; 5: > 6.00
